The reported numbers originate from paper PMC9352680.

I'd be grateful if you could share measured log10(Kd) for these entries.
- Target System: T1, PUF4 RNA-binding domain (Saccharomyces cerevisiae, UniProt P25339 537-888)
- T1 sequence: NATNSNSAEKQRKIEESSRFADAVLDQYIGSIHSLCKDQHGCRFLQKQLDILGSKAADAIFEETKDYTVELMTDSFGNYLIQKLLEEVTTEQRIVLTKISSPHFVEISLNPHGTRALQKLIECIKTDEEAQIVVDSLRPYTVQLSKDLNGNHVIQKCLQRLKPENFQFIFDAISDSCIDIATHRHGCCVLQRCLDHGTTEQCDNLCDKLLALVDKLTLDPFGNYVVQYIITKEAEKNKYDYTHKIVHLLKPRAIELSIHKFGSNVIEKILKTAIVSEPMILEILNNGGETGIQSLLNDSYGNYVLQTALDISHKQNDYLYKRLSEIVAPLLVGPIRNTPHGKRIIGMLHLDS
- Assay Comment: Mg; RNA-MaP; 20 mM Na-HEPES pH 7.4, 30 mM KOAc, 0.75 mM MgCl2, 0.1% Tween-20, 5% glycerol, 0.1 mg/mL BSA, 2 mM DTT; 25 C; 0.0125-409.6 nM protein
- Condition Description: tags: N-His6-TEV cleaved; C-SNAP kept, Cy3B-labelled; label: tethered on chip by stalled RNA polymerase
All values: log10 Kd [nM].

Reference set (4 entries):
Ib_S4_P4E.1_K4.1_C4.1_H4.1_[T1A]_[G2T]_A4.1_F4.1_T4.1 (ssRNA) RNA: UUUGACAACUGAUCGUUCUUUCUAUUAUAUUAUUCUUUCUCGAUCAGUUGUCUUU: 2.84
Ic_S4_P4E.1_K4.1_C4.1_H4.1_A4.1_[T5A]_F4.1_T4.1 (ssRNA) RNA: UUUGACAACUGAUCGUUCUUUCUUGUAAAUUAUUCUUUCUCGAUCAGUUGUCUUU: 0.23
Ic_S4_P4E.1_K4.1_C4.1_H4.1_A4.1_[T5C]_[A6T]_[T7C]_F4.1_[T8A]_T4.1 (ssRNA) RNA: UUUGACAACUGAUCGUUCUUUCUUGUACUCAAUUCUUUCUCGAUCAGUUGUCUUU: 1.98
UCUCUUGUCACACUAUAUAUCUCUU (ssRNA) [Id_i_S1_P3E.7_K3.3_C3.3_[T-3G]_[C-2T]_[T-1C]_H3.3_A3.1_F3.1_T3.2]: 1.59

Reported log10(Kd) of UCUCUUUUCUCUGUAUAUUAUCUCUU (ssRNA) [Ie_S1_P4E.1_K4.1_C4.1_H4.1_[+1TCTCT]_A4.1_F4.1_T4.1] : -0.23
